biological target: adenosine A2A receptor (Homo sapiens (Human), UniProt P29274); test: cAMP assay in HEK-293 cells expressing human recombinant adenosine A2A receptor; format: cell-based; conditions: HEK293; 100 nM compound; read-out: A2a cAMP % inh @ 100 nM
Sequence (P29274 whole entry): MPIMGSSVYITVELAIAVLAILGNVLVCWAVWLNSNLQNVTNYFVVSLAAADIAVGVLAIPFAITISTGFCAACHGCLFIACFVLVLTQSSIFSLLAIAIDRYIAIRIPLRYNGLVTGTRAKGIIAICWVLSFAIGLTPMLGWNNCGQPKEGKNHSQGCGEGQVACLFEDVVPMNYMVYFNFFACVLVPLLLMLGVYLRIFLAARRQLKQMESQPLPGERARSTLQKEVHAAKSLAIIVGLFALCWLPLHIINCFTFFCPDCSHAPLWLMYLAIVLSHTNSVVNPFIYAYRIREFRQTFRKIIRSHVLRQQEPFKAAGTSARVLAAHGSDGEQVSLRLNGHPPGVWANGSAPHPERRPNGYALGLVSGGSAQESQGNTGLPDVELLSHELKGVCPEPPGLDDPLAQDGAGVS
Reported inhibition at 0.1 µM values for the following compounds.
MEASURED_QUANTITY: inhibition at 0.1 µM (%)

O=c1cc[nH]c2nc(-c3ccccc3)c(-c3ccc4ocnc4c3)cc12 [Compound No. 1.21] : 45
O=c1cc[nH]c2nc(-c3cccnc3)c(-c3ccc4ncccc4c3)cc12 [Compound No. 1.28] : 46
O=c1cc[nH]c2nc(-c3ccccc3)c(-c3ccc4ncsc4c3)cc12 [Compound No. 1.24] : 83
